# PROCEDURE DETAILS: self-splicing fitness, log relative to wild type (ln ratio); higher = more splicing; Tetrahymena group I intron in knt gene, E. coli kanamycin selection, DiMSum; sequences stand for … in CUCUCU…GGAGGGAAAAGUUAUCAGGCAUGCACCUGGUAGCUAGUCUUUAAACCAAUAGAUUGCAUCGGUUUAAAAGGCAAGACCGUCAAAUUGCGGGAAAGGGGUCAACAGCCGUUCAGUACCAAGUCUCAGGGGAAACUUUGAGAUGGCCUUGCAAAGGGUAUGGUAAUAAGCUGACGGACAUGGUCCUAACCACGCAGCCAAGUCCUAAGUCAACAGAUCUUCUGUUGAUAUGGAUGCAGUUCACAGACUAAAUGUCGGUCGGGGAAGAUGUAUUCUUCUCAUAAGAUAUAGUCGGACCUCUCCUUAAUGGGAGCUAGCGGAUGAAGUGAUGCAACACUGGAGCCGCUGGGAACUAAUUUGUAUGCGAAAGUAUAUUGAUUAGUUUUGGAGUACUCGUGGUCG;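 also: selection with 25 µg/mL kanamycin versus none on LB agar overnight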
# MEASUREMENT CONDITIONS: 30 °C
Kindly state self-splicing fitness (ln) for each of the entries shown.
I only need the number, thanks.

Item under review: `UUACAGCAAUAUUACGCUAA` . Reported self-splicing fitness (ln)?
-2.01

Requested read-out: self-splicing fitness (ln). Entry: `ACAGAGCAAUAUUACGAGGC`
-3.42

Query (sequence): `AUAUAGCAAUAUUACGAUUG` ; field requested: self-splicing fitness (ln)
-2.96

Field request: self-splicing fitness (ln) | item: `CUGCAGCAAUAUUACGAGUG`
-0.52

What measured self-splicing fitness (ln) goes with `UGGAAGCAAUAUUACGUACA` ?
-0.926

Value lookup for self-splicing fitness (ln); key = `AAAAAGCAAUAUUACGUAUA`
-2.14

Fill in the blank: the reported self-splicing fitness (ln) of `UCAAAGCAAUAUUACGCUGA` is ____.
-3.43

Requested read-out: self-splicing fitness (ln). Entry: `ACUCAGCAAUAUUACGUAUG`
-3.11

Need self-splicing fitness (ln) of `UCGAAGCAAUAUUACGGUCU` , thanks.
-2.6

Recorded self-splicing fitness (ln) of `AUGCAGCAAUAUUACGGCUG` , please.
-2.78

Field request: self-splicing fitness (ln) | item: `CAAGAGCAAUAUUACGAAGC`
-3.5

Any idea what self-splicing fitness (ln) was measured for `UCGUAGCAAUAUUACGUCCU` ?
-2.04

Would you kindly share the measured self-splicing fitness (ln) for `UGGCAGCAAUAUUACGUUGC` ?
-3.77

Please report the recorded self-splicing fitness (ln) for `GUGGAGCAAUAUUACGGGAC` .
-2.17

Look at this sequence and give its reported self-splicing fitness (ln). `AUACAGCAAUAUUACGAAGG`
-3.3

# self-splicing fitness (ln) lookup, item `CAUAAGCAAUAUUACGGGAC`
-1.54

###

Record form. Attribute: self-splicing fitness (ln). Fill in for each entry.
# PROCEDURE DETAILS: self-splicing fitness, log relative to wild type (ln ratio); higher = more splicing; Tetrahymena group I intron in knt gene, E. coli kanamycin selection, DiMSum; sequences stand for … in CUCUCU…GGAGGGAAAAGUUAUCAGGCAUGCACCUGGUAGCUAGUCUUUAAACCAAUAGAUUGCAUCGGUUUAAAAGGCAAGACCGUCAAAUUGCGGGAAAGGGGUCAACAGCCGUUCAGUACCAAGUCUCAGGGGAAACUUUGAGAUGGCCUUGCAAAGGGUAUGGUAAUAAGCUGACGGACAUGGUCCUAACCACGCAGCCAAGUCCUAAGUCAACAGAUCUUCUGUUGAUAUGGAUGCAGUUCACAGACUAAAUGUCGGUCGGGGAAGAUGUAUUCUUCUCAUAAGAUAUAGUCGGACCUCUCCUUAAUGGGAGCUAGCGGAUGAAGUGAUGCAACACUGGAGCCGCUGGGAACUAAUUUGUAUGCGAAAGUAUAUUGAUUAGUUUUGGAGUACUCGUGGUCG
# MEASUREMENT CONDITIONS: 30 °C
Just the number, please.

# lookup: self-splicing fitness (ln) of `UCAAAGCAAUAUUACGAUCG`
-0.659

Data request, read-out self-splicing fitness (ln), for `UGACAGCAAUAUUACGGCAC`
-3.55

Fill in the blank: the reported self-splicing fitness (ln) of `UGAGAGCAAUAUUACGAAGG` is ____.
-2.94

Given the sequence `UCCCAGCAAUAUUACGUCUC` , what is its reported self-splicing fitness (ln)?
-3.23

Can you share its self-splicing fitness (ln)? I mean this sequence: `AUCGAGCAAUAUUACGGUCA`
-2.98

I have this sequence here, `GGUGAGCAAUAUUACGGACA` , and I need its recorded self-splicing fitness (ln).
-1.48

// returns reported self-splicing fitness (ln) for input `CGCCAGCAAUAUUACGCGGA`
-2.91

Entry `CGUGAGCAAUAUUACGCAUA` : reported self-splicing fitness (ln) = ?
-3.2

Which self-splicing fitness (ln) reading was recorded for the sequence `GUCAAGCAAUAUUACGUAUA` ?
-2.31

Given the sequence `CGGAAGCAAUAUUACGGAUA` , what is its reported self-splicing fitness (ln)?
-3.36

Which measured self-splicing fitness (ln) value corresponds to `AAGUAGCAAUAUUACGUAGG` ?
-4.35

I'd like to know its self-splicing fitness (ln). The sequence in question is `UCCUAGCAAUAUUACGGCGA`
-0.128

Endpoint output: self-splicing fitness (ln) of `CAGUAGCAAUAUUACGUCGA` . Value?
-3.45

Field request: self-splicing fitness (ln) | item: `CCCGAGCAAUAUUACGCUGA`
-3.44

Fill in: self-splicing fitness (ln) of `CAUUAGCAAUAUUACGACAA` is ___
-2.37

Item under review: `GCUCAGCAAUAUUACGGAAU` . Reported self-splicing fitness (ln)?
-0.424

###

# PROCEDURE DETAILS: self-splicing fitness, log relative to wild type (ln ratio); higher = more splicing; Tetrahymena group I intron in knt gene, E. coli kanamycin selection, DiMSum; sequences stand for … in CUCUCU…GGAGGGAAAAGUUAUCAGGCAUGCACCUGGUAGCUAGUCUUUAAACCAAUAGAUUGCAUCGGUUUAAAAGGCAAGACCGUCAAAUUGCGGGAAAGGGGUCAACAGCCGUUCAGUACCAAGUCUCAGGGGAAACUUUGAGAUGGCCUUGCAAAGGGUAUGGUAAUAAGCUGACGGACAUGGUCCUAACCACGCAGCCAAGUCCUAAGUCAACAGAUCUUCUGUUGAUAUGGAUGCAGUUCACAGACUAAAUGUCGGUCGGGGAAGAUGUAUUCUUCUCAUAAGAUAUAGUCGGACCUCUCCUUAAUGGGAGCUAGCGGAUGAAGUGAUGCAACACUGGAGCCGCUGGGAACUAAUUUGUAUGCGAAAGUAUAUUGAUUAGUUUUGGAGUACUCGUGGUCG
# MEASUREMENT CONDITIONS: 30 °C
Measured self-splicing fitness (ln) determines class: 1: < -2; 2: ≥ -2 and < -1; 3: ≥ -1

Assign a category based on measured self-splicing fitness (ln) for `GCUGAGCAAUAUUACGAUGA` and give only the class name.
2

Which self-splicing fitness (ln) category applies to `UAGCAGCAAUAUUACGAGCU` here?
2

Band for the recorded self-splicing fitness (ln) of `GCAUAGCAAUAUUACGUCCA` ?
2

Lab note: sort `AAAAAGCAAUAUUACGUUAG` into the matching self-splicing fitness (ln) band.
1

// return the class label for `GCCCAGCAAUAUUACGUUCA`
1

Which self-splicing fitness (ln) category applies to `UGGAAGCAAUAUUACGGGCA` here?
3

Consider `GAGUAGCAAUAUUACGCCGA` . To which self-splicing fitness (ln) class does it belong?
2

Could you place `AAAAAGCAAUAUUACGGCGA` in its proper category? Many thanks.
3

Each sequence maps to one class by self-splicing fitness (ln). Which class for `CGACAGCAAUAUUACGCUCA` ?
3

Lab note: sort `AUACAGCAAUAUUACGGCCU` into the matching self-splicing fitness (ln) band.
3

Form: Item = `CCGCAGCAAUAUUACGCUGG` ; Class = ?
1

For `GGCCAGCAAUAUUACGCAAU` , which self-splicing fitness (ln) bin applies?
2

Assign a category based on measured self-splicing fitness (ln) for `UAUCAGCAAUAUUACGGUAC` and give only the class name.
1

Hi there! Could you help me figure out the category for `GCUGAGCAAUAUUACGUCCC` please?
3

State the class of the sequence shown: `AGCGAGCAAUAUUACGAACG`
1

Form field 'band' for `AAGCAGCAAUAUUACGCGCA`
2

###

# PROCEDURE DETAILS: self-splicing fitness, log relative to wild type (ln ratio); higher = more splicing; Tetrahymena group I intron in knt gene, E. coli kanamycin selection, DiMSum; sequences stand for … in CUCUCU…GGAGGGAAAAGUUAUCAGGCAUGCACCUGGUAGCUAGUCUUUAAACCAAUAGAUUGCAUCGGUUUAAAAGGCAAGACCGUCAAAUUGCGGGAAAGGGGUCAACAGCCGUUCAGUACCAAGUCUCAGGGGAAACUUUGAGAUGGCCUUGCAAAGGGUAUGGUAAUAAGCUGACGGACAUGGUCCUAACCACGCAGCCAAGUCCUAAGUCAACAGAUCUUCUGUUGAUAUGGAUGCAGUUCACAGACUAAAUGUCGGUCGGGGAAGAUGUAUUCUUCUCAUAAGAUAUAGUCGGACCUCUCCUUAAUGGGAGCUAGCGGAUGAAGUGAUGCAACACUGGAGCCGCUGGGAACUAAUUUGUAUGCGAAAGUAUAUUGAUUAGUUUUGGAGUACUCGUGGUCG
# MEASUREMENT CONDITIONS: 37 °C
// classify(record): look up self-splicing fitness (ln) in ranges bottom range: < -2; center range: ≥ -2 and < -0.8; top range: ≥ -0.8

Exam item: assign `CAUUAGCAAUAUUACGCGGC` to the correct category.
center range

The entry to classify is `UCGAAGCAAUAUUACGAGAG` ; which class holds it?
center range

State the class of the sequence shown: `AUUAAGCAAUAUUACGUCGA`
center range

Which class does `AUGUAGCAAUAUUACGUUUU` fall in?
center range

Band assignment needed for `GAUAAGCAAUAUUACGCAUU` please.
bottom range

Lab log: `CCCUAGCAAUAUUACGUCUC` — assign self-splicing fitness (ln) category
bottom range

// return the class label for `CUCUAGCAAUAUUACGCUUU`
bottom range

Where would `AACCAGCAAUAUUACGCGGG` land among the classes by reported self-splicing fitness (ln)?
bottom range

GET /class?item= `CCACAGCAAUAUUACGAUUU`
bottom range

Band assignment needed for `UAAAAGCAAUAUUACGAUAA` please.
top range

Class for `CCUUAGCAAUAUUACGGAUC` ?
bottom range

Class (by measured self-splicing fitness (ln)) for `GCGUAGCAAUAUUACGGCAA`
center range

Which class is correct for the following sequence? `CAGUAGCAAUAUUACGAUAG`
top range

Entry `CUCAAGCAAUAUUACGCGCG` belongs to which category?
bottom range

Entry `CCGUAGCAAUAUUACGUGGU` belongs to which category?
bottom range

Form field 'band' for `AUCUAGCAAUAUUACGGCUG`
top range

Kindly state the category for this sequence: `UACCAGCAAUAUUACGAGUU`
center range

Which band does `UACCAGCAAUAUUACGGGAA` fall in?
top range

Looking at `UGGAAGCAAUAUUACGCUGC` , which class would you pick?
bottom range

Using the reported self-splicing fitness (ln), which band applies to `CGGAAGCAAUAUUACGCUAU` ?
bottom range

Hi there! Could you help me figure out the category for `UGCUAGCAAUAUUACGUAUC` please?
bottom range

Hi there! Could you help me figure out the category for `GUAUAGCAAUAUUACGUAUA` please?
center range

Form field 'band' for `GCUGAGCAAUAUUACGAGCU`
center range

Dear colleague, I would appreciate it if you could identify the bin for `CUAGAGCAAUAUUACGGUCA` and reply at your convenience.
bottom range

Dear colleague, I would appreciate it if you could identify the bin for `AUGAAGCAAUAUUACGGAGC` and reply at your convenience.
center range

Lab note: sort `GUACAGCAAUAUUACGAGCG` into the matching self-splicing fitness (ln) band.
top range

Classify this sequence: `GUAGAGCAAUAUUACGUUAA`
top range

Band assignment needed for `UGUAAGCAAUAUUACGUUAG` please.
top range

Sort into band: `CGGAAGCAAUAUUACGUUAC`
bottom range

Please let me know in which category the item `CUAGAGCAAUAUUACGCCAC` belongs.
bottom range

Record `AAACAGCAAUAUUACGGCUU` — which class?
top range

Looking at `GUCGAGCAAUAUUACGUGGG` , which class would you pick?
top range

Record `UCAAAGCAAUAUUACGCCUA` — which class?
top range

Quick check: band for `GAACAGCAAUAUUACGGCAU`
top range

Hey, which category is `GGGCAGCAAUAUUACGCUUG` in, do you know?
top range

Category of `AACCAGCAAUAUUACGUACA` , please.
top range

Data provenance is the supplement of paper PMC7877785.
